# experiment: Solubility in formulation vehicles with different solubilizers
# Assay type: physicochemical
# cond: formulation vehicle with 1% Polysorbate 80, aqueous with cosolvent or surfactant or cyclodextrin; vehicle with 1% Polysorbate 80; 5 °C; read-out: Solubility (mg/ml) measured after 8 weeks
propertyLabel: solubility at 8 weeks (mg/mL)
Your answer should be a plain number; it is taken to be in mg/mL.

Asked: For `CCCCC[C@H](O)c1ccc(N2C(=O)CC[C@@H]2COCc2ccc(C(=O)OC(C)C)s2)cc1` , what is its reported solubility at 8 weeks?
Given back: 1.68
